# experimental system: SSAO (Rattus norvegicus, UniProt O08590)
# Construct: from tissue; host or cells: rat lung homogenate (1000 g supernatant)
# Sequence (O08590 1-763): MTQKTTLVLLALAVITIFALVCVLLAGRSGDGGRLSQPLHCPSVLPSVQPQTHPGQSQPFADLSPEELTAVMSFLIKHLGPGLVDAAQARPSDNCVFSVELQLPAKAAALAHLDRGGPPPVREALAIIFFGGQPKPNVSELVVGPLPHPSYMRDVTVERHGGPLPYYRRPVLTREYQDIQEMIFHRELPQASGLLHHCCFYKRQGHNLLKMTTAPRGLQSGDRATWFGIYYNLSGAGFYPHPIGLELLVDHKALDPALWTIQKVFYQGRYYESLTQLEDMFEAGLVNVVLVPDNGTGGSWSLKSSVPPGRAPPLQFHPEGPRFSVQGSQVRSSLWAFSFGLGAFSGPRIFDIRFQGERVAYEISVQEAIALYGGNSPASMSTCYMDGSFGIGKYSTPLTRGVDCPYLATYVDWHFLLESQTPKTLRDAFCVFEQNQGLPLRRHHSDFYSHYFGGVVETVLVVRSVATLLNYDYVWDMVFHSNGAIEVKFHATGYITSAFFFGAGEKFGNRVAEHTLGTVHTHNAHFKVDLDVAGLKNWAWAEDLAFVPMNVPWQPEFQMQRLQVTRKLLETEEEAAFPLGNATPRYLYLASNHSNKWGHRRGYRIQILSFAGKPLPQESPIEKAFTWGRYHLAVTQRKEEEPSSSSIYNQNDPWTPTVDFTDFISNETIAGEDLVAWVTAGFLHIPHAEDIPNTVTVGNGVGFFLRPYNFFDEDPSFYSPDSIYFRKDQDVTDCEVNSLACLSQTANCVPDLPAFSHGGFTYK
# test protocol: In vitro inhibition of SSAO activity, radiolabeled benzylamine procedure (rat lung homogenate)
# Type: biochemical
# condition summary: Table II, compounds of formula III
// IC50 lookup, one value per entry
Expressed in nM, but write only the number.

Example results:
Fc1ccc(CCC2=CCNC2)cc1 = 1830
COc1ccc(CCC2=CCNC2)cc1 = 2100
Fc1cccc(CCC2=CCNC2)c1 = 2400

Q: Please give the documented IC50 of COc1cccc(CCC2=CCNC2)c1
Result: 500

---

Listed below: IC50 values for each entry.
# experimental system: SSAO (Rattus norvegicus, UniProt O08590)
# Construct: from tissue; host or cells: rat lung homogenate (1000 g supernatant)
# test protocol: In vitro inhibition of SSAO activity, radiolabeled benzylamine procedure (rat lung homogenate)
# Assay type: biochemical
# condition summary: Table I, compounds of formula X
# Protocol: SSAO activity was also measured as described (Lizcano J M. Et al. (1998) Biochem J. 331:69). Briefly, rat lung homogenates were prepared by chopping the freshly removed tissue into small pieces and washing them thoroughly in PBS. The tissue was then homogenized 1:10 (w/v) in 10 mM potassium phosphate buffer (pH 7.8) and centrifuged at 1000 g at 4° C. for 10 minutes; the supernatant was kept frozen until ready to use. […]
Unit nM implied. Number only.

Past entries and their recorded results:
NCC(=O)NCc1cc(F)cc(C(F)(F)F)c1 = 33
NCC(=O)NCc1cccnc1 = 700

From here, focus on the item given below.
Q: Identify measured IC50 corresponding to NCC(=O)NCc1ccc(F)cc1
Result: 2400

---

Documented melting point across a set of compounds
Structures can show the parent of a compound that is named as a salt.

# count of solved cases: 7
NCC(=O)NCc1cc(F)cc(C(F)(F)F)c1 (as salt: trifluoroacetate) [LJP 1383] = 189.5 to 190.5 °C
C#CC(N)CCCc1ccc(OC)cc1 (centres unmarked) (as salt: hydrochloride) = 175 °C (dec.)
NCC(=O)NCc1cc(F)cc(C(F)(F)F)c1 [compound 1383] = 189.5 to 190 °C
COc1ccc(CCCC(N)c2ccc(F)c(F)c2)cc1 (centres unmarked) [Example 3D] = 200 °C (dec.)
C=CC(N)CCCc1ccccc1 (centres unmarked) [Example 3E, 1-(3-phenyl-propyl)-allylamine] = 143 to 144 °C
NCC(=O)NCc1ccc(F)cc1 (as salt: hydrochloride) [LJP 1334, 2-amino-N-(4-fluorobenzyl)acetamide] = 114 to 115 °C
NC/C=C(/Cc1ccccc1)C(F)(F)F [Example 3, 3-benzyl-4,4,4-trifluoro-but-2-enylamine] = 170 °C (dec.)

Q: State, in one line, measured melting point of NCC(=O)NCc1cccnc1 [LJP 1356, 2-amino-N-pyridin-3-ylmethylacetamide]
Result: 87 to 88 °C

---

# experimental system: human MAO-A (Homo sapiens, UniProt P21397)
# Sequence (P21397 whole entry): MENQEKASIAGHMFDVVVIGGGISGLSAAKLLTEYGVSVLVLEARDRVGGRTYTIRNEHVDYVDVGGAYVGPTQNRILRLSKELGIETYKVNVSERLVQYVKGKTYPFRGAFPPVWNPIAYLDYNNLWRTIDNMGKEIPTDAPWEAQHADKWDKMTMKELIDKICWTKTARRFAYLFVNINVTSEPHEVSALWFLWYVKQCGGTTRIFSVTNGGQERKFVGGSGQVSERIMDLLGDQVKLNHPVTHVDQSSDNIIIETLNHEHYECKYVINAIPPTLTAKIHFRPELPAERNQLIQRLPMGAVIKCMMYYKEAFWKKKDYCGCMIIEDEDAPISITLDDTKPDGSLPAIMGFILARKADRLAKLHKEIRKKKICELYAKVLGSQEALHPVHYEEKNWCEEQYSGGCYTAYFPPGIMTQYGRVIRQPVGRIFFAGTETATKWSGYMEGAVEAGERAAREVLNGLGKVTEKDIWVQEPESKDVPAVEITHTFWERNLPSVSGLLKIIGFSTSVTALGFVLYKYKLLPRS
# test protocol: Inhibition of MAO-A activity, coupled colorimetric assay
# condition summary: recombinant human MAO-A, tyramine substrate
property measured: IC50

NCC(=O)NCc1cc(F)cc(C(F)(F)F)c1 [compound 1383] = > 1300 µM

Q: Note down IC50 recorded for COc1cccc(CCC2=CCNC2)c1 [compound 1368]
Result: > 1000 µM

---

# experimental system: SSAO (Rattus norvegicus, UniProt O08590)
# Construct: from tissue; host or cells: rat lung homogenate (1000 g supernatant)
# Sequence (O08590 1-763): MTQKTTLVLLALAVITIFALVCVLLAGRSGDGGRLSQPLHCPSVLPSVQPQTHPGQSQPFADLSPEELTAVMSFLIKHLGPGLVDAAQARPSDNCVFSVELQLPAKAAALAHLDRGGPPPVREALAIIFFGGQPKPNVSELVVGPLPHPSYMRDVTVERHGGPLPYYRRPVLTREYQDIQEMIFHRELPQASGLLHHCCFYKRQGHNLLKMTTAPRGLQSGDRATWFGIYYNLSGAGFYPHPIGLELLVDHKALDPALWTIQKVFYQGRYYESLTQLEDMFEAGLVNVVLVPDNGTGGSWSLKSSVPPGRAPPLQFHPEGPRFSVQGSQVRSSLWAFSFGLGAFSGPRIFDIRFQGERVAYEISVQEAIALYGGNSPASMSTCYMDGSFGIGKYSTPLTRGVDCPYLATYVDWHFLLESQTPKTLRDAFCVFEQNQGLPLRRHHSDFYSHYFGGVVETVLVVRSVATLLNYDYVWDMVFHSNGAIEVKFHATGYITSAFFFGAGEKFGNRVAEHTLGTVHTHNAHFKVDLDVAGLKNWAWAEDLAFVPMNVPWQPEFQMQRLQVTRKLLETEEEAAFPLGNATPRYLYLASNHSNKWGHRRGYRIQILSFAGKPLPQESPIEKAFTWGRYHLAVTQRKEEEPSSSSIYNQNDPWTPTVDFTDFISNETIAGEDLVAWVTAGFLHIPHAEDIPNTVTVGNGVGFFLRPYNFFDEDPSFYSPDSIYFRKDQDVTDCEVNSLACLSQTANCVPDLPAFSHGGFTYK
# test protocol: In vitro inhibition of SSAO activity, radiolabeled benzylamine procedure (rat lung homogenate)
# Assay type: biochemical
# condition summary: Table II; at 10 μM
property measured: inhibition at 10 µM (%)
The answer is to be given in %; state only the numeric part.

COc1cccc(OCC2=CCCNC2)c1 = 74
Fc1ccc(OCC2=CCCNC2)cc1 = 56
Fc1cccc(OCC2=CCCNC2)c1 = 61

// below: inhibition at 10 µM requested for another compound
Q: For COc1ccc(OCC2=CCCNC2)cc1 , write its inhibition at 10 µM.
Result: 63
